The reported numbers originate from ChEMBL document CHEMBL4308843.

- protocol: Oral bioavailability in Beagle dog at 1 mg/kg by LC-MS analysis
- Assay type: ADME, organism-based, Canis lupus familiaris
- test_settings: in vivo
observed_property: bioavailability (%)
Give bare numbers, in %.

Exercise: Need bioavailability, item O=C(OC(C(F)(F)F)C(F)(F)F)N1CCN(Cc2ccc(C(F)(F)F)cc2N2CCCC2)CC1 [ELCUBRAGISTAT]
Solution: 57

###

- protocol: Cmax in Sprague-Dawley rat at 5 mg/kg, po by LC-MS analysis
- Assay type: ADME, organism-based
- Design: dose 5 mg/kg, route oral
- test_settings: in vivo
observed_property: Cmax (nM)
Give bare numbers, in nM.

Exercise: So what's the measured Cmax for this one? "O=C(OC(C(F)(F)F)C(F)(F)F)N1CCN(Cc2ccc(C(F)(F)F)cc2N2CCCC2)CC1"
Solution: 688

###

- test_system: Cytochrome P450 2C9 (Homo sapiens, UniProt P11712)
- Sequence (P11712 whole entry): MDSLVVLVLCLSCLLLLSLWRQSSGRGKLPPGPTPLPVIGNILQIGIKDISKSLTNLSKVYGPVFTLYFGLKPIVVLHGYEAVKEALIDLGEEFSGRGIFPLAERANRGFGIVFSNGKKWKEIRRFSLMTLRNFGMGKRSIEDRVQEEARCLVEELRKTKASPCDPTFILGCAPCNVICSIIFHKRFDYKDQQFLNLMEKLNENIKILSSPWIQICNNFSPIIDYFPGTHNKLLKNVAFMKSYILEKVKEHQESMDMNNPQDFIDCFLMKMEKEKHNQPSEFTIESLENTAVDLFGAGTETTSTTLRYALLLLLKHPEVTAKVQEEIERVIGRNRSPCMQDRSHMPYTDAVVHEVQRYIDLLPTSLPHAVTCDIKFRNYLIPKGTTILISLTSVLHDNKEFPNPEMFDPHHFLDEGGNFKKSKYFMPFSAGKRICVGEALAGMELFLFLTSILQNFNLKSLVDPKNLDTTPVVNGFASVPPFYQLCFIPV
- protocol: Inhibition of recombinant human CYP2C9
pIC50: −log10 of the molar value.
observed_property: pIC50

Exercise: Quick one: pIC50 for O=C(OC(C(F)(F)F)C(F)(F)F)N1CCN(Cc2ccc(C(F)(F)F)cc2N2CCCC2)CC1 [ELCUBRAGISTAT] ?
Solution: < 4.30

###

- test_system: UniProt:P10635
- Sequence (P10635 whole entry): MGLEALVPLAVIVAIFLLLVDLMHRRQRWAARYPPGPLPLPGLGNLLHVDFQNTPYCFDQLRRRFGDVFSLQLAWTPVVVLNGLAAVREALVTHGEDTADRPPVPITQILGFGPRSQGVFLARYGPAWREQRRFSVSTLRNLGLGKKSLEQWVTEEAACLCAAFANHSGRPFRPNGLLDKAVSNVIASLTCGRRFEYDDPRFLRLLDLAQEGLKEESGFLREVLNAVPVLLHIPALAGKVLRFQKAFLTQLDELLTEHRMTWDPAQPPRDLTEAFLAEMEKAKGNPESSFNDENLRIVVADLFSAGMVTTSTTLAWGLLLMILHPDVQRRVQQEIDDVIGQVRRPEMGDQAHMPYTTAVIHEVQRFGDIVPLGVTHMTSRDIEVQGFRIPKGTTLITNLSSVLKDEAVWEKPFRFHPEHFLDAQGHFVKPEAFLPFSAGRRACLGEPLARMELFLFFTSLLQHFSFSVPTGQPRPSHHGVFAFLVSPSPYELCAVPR
- protocol: Inhibition of recombinant human CYP2D6
observed_property: pIC50
Give bare numbers, as −log10 of the molar value.

Exercise: Any idea what pIC50 came out for O=C(OC(C(F)(F)F)C(F)(F)F)N1CCN(Cc2ccc(C(F)(F)F)cc2N2CCCC2)CC1 [ELCUBRAGISTAT] on UniProt:P10635?
Solution: 5.19

###

- protocol: Volume of distribution at steady state in Beagle dog at 1 mg/kg, iv or 1 mg/kg, po by LC-MS analysis
- Type: ADME, organism-based, Canis lupus familiaris
- test_settings: in vivo, read-out: Vdss
observed_property: Vd (L/kg)
One number for each entry, in L/kg.

Exercise: I have this compound here, "O=C(OC(C(F)(F)F)C(F)(F)F)N1CCN(Cc2ccc(C(F)(F)F)cc2N2CCCC2)CC1" , and I need its recorded Vd.
Solution: 1.2

###

- test_system: Monoglyceride lipase (Mus musculus, UniProt O35678)
- Sequence (O35678 whole entry): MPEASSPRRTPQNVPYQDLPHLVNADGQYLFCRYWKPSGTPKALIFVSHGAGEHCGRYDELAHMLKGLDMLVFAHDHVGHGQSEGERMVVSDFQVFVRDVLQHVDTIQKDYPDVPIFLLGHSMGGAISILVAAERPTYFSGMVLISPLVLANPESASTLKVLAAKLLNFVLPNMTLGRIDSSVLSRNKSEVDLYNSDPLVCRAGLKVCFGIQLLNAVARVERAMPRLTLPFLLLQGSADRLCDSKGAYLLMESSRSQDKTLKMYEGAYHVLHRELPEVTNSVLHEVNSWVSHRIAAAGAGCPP
observed_property: IC50 (nM)
Numbers only, in nM.

O=C(OC(C(F)(F)F)C(F)(F)F)N1CCN(Cc2ccc(Cl)cc2N2CC[C@H]3CCCN3C2)CC1: 66

Exercise: // map "O=C(OC(C(F)(F)F)C(F)(F)F)N1CCN(Cc2ccc(C(F)(F)F)cc2N2CCCCC2)CC1" to recorded IC50 (system: Monoglyceride lipase (Mus musculus, UniProt O35678))
Solution: 130
